// values below are reported pest or weed control at 200 ppm
System: Puccinia recondita f. sp. tritici
Assay: Puccinia recondita f. sp. tritici / wheat / leaf disc preventative (brown rust)
Type: in vivo
Conditions: foliar, wheat leaf segments cv. Kanzler, inoculated 1 day after application, assessed 7-9 days after application, read-out: control of Puccinia recondita f. sp. tritici, preventative (percent disease control compared to untreated)

// solved cases for pest or weed control at 200 ppm follow
COc1ccc(Nc2cc(F)cc(F)c2)nc1C(=O)NCC(C)c1ccccc1 (stereo not shown) | ≥ 80%
CC(C)(C)NC(=O)c1cccc(Nc2cc(F)cc(F)c2)n1 | ≥ 80%
COc1ccc(Nc2cc(F)cc(F)c2)nc1C(=O)NC1CCC1(C)C (stereo not shown) | ≥ 80%

Item: COc1ccc(Nc2cc(F)cc(F)c2)nc1C(=O)NC1CC(c2ccc(Cl)cc2)C1 (stereo not shown) | pest or weed control at 200 ppm: ≥ 80%

----------
// values below are reported inhibition at 20 ppm
Test system: Glomerella lagenarium (Colletotrichum lagenarium)
Assay: Glomerella lagenarium (Colletotrichum lagenarium) / liquid culture (anthracnose)
Format: cell-based
Details: Colletotrichum orbiculare, PDB potato dextrose broth, 24° C., 3-4 days after application, read-out: control of Glomerella lagenarium (inhibition of growth, photometric)

COc1ccc(Nc2cccc(F)c2)nc1C(=O)NCC(C)(C)C | ≥ 80%
COc1ccc(Nc2cc(F)nc(F)c2)nc1C(=O)NC(C)(C)C(C)C | ≥ 80%
CC(C)(C)CNC(=O)c1nc(Nc2cc(F)nc(F)c2)ccc1O | ≥ 80%
COc1ccc(Nc2cccc(C)c2)nc1C(=O)NCC(C)(C)C | ≥ 80%
COc1ccc(Nc2cc(F)cc(F)c2)nc1C(=O)NCC(C)c1ccccc1 (stereo not drawn) | ≥ 80%
COc1ccc(Nc2cc(F)cc(F)c2)nc1C(=O)NC1CCC1(C)C (stereo not drawn) | ≥ 80%

Item: COc1ccc(Nc2ccc(Cl)c(Cl)c2)nc1C(=O)NC(C)(C)C | inhibition at 20 ppm: ≥ 80%

Item: COc1ccc(Nc2cc(F)nc(F)c2)nc1C(=O)NC1CCc2cc(C(F)(F)F)ccc21 (stereo not drawn) | inhibition at 20 ppm: ≥ 80%

Item: CC1(C)CCC1NC(=O)c1nc(Nc2cc(F)cc(F)c2)ccc1O (stereo not drawn) | inhibition at 20 ppm: ≥ 80%

----------
System: Puccinia recondita f. sp. tritici
Assay: Puccinia recondita f. sp. tritici / wheat / leaf disc preventative (brown rust)
Assay type: in vivo
Conditions: foliar, wheat leaf segments cv. Kanzler, inoculated 1 day after application, assessed 7-9 days after application, read-out: control of Puccinia recondita f. sp. tritici, preventative (percent disease control compared to untreated)
// values below are reported pest or weed control at 200 ppm

COc1ccc(Nc2cc(F)nc(F)c2)nc1C(=O)NC1(C(C)C)CCC1 | ≥ 80%
COc1ccc(Nc2cc(F)cc(F)c2)nc1C(=O)NCc1ccccc1 | ≥ 80%
COc1ccc(Nc2cc(F)nc(F)c2)nc1C(=O)NC1(C(C)(C)C)CCC1 | ≥ 80%
COc1ccc(Nc2cccc(F)c2)nc1C(=O)NCC(C)(C)C | ≥ 80%
COc1ccc(Nc2cc(F)cc(F)c2)nc1C(=O)NCC1(C(F)(F)F)CC1 | ≥ 80%
COc1ccc(Nc2ccnc(F)c2)nc1C(=O)NCC(C)(C)C | ≥ 80%
COc1ccc(Nc2cc(F)cc(F)c2Cl)nc1C(=O)NC(C)(C)C | ≥ 80%
COc1ccc(Nc2cc(F)cc(F)c2)nc1C(=O)NC1CCc2ccc(C(F)(F)F)cc21 (stereo not drawn) | ≥ 80%
COc1ccc(Nc2cc(F)nc(F)c2)nc1C(=O)NCCc1ccccc1 | ≥ 80%
COc1ccc(Nc2cc(F)cc(F)c2)[n+]([O-])c1C(=O)NC(C)(C)C | ≥ 80%

Item: COc1ccc(Nc2cc(F)cc(F)c2)nc1C(=O)NC1(C)CCCC1 | pest or weed control at 200 ppm: ≥ 80%

Item: COc1ccc(Nc2cc(F)cc(F)c2)nc1C(=O)NC1COC2(CC2)C1 (stereo not drawn) | pest or weed control at 200 ppm: ≥ 80%

Item: COc1ccc(Nc2cc(F)cc(F)c2)nc1C(=O)NC1CCc2cc(C(F)(F)F)ccc21 (stereo not drawn) | pest or weed control at 200 ppm: ≥ 80%

Item: COc1ccc(Nc2cc(F)cc(F)c2)nc1C(=O)NCc1ccc(Oc2ccccc2)cc1 | pest or weed control at 200 ppm: ≥ 80%

Item: COc1ccc(Nc2cc(F)nc(F)c2)nc1C(=O)NC(C)CCCC(C)C (stereo not drawn) | pest or weed control at 200 ppm: ≥ 80%

Item: COc1ccc(Nc2cc(F)nc(F)c2)nc1C(=O)NC(C)(C)C(C)C | pest or weed control at 200 ppm: ≥ 80%

Item: COc1ccc(Nc2cc(F)nc(F)c2)nc1C(=O)NC1(C)CC1 | pest or weed control at 200 ppm: ≥ 80%

Item: COc1ccc(Nc2cnsc2)nc1C(=O)NCc1cnc(C(F)(F)F)nc1 | pest or weed control at 200 ppm: ≥ 80%

----------
Test system: Sclerotinia sclerotiorum
Experiment: Sclerotinia sclerotiorum / liquid culture (cottony rot)
Assay type: cell-based
Details: PDB potato dextrose broth, mycelia fragments, 24° C., 3-4 days after application, read-out: control of Sclerotinia sclerotiorum (inhibition of growth, photometric)
Description: Example B14: Sclerotinia sclerotiorum/Liquid Culture (Cottony Rot) Mycelia fragments of a newly grown liquid culture of the fungus are directly mixed into nutrient broth (PDB potato dextrose broth). After placing a (DMSO) solution of test compound into a microtiter plate (96-well format) the nutrient broth containing the fungal material is added. The test plates are incubated at 24° C. and the inhibition of growth is determined photometrically 3-4 days after application.
// values below are reported inhibition at 20 ppm

// solved cases for inhibition at 20 ppm follow
COc1ccc(Nc2cc(F)cc(F)c2)nc1C(=O)NC1(C(C)(C)C)CCC1 | ≥ 80%
COc1ccc(Nc2cc(F)c(F)c(F)c2)nc1C(=O)NCC(C)(C)C | ≥ 80%
COc1ccc(Nc2cc(F)nc(F)c2)nc1C(=O)NC1CCC1(C)C (stereo not shown) | ≥ 80%
COc1ccc(Nc2cc(F)cc(C#N)c2)nc1C(=O)NC(C)(C)C | ≥ 80%

Item: CC1(C)CCC1NC(=O)c1nc(Nc2cnsc2)ccc1O (stereo not shown) | inhibition at 20 ppm: ≥ 80%

Item: COc1ccc(Nc2cc(F)cc(Cl)c2)nc1C(=O)NC(C)(C)C | inhibition at 20 ppm: ≥ 80%

Item: COc1ccc(Nc2cc(F)cc(F)c2)nc1C(=O)NCC1(C)CCOC2(CCC2)C1 (stereo not shown) | inhibition at 20 ppm: ≥ 80%

Item: COc1cnc(Nc2cc(F)cc(F)c2)nc1C(=O)NC1CCC1(C)C (stereo not shown) | inhibition at 20 ppm: ≥ 80%

Item: COc1ccc(Nc2cc(F)c(F)c(F)c2)nc1C(=O)NC(C)(C)C | inhibition at 20 ppm: ≥ 80%

Item: CCOc1ccc(Nc2cc(F)cc(F)c2)nc1C(=O)NC1CCC1(C)C (stereo not shown) | inhibition at 20 ppm: ≥ 80%

----------
Test system: Glomerella lagenarium (Colletotrichum lagenarium)
Assay: Glomerella lagenarium (Colletotrichum lagenarium) / liquid culture (anthracnose)
Format: cell-based
Details: Colletotrichum orbiculare, PDB potato dextrose broth, 24° C., 3-4 days after application, read-out: control of Glomerella lagenarium (inhibition of growth, photometric)
// values below are reported inhibition at 20 ppm

// solved cases for inhibition at 20 ppm follow
COc1ccc(Nc2cc(F)cc(C#N)c2)nc1C(=O)NC(C)(C)C | ≥ 80%
COc1ccc(Nc2cc(F)cc(F)c2)nc1C(=O)NCC1(c2ccc(Cl)nc2)CC1 | ≥ 80%
COc1ccc(Nc2ccc(Cl)c(F)c2)nc1C(=O)NCC(C)(C)C | ≥ 80%
CCOc1ccc(Nc2cc(F)nc(F)c2)nc1C(=O)NC(C)(C)C | ≥ 80%
CC1(NC(=O)c2cccc(Nc3cc(F)cc(F)c3)n2)CCCC1 | ≥ 80%
COc1ccc(Nc2cc(F)nc(F)c2)nc1C(=O)NC1CCC1(C)C (centres unmarked) | ≥ 80%

Item: COCC(=O)Oc1ccc(N(C(=O)COC)c2cc(F)cc(F)c2)nc1C(=O)NC1CCC1(C)C (centres unmarked) | inhibition at 20 ppm: ≥ 80%

Item: COc1ccc(Nc2cc(F)cc(F)c2)[n+]([O-])c1C(=O)NC(C)(C)C | inhibition at 20 ppm: ≥ 80%
